- run_description: DUSP6 inhibitors restoring Erk phosphorylation by chemical complementation, primary imaging in DUSP6-transfected HeLa (AID 609)
- study_conditions: HeLa MKP-3 transfected, phospho-Erk imaging KS statistic; measured here: cell density z-score; at 10 µM; cells stimulated with TPA for 15 min
Decision: z-score >= -0.7 yields Y, all other cases yield N.

{"compound": "CCn1nnc(C(=O)O)c1C(=O)O", "group_label": "N"}

Please tell me: is the compound COc1ccc(NC2CC(=O)N(C)C2=O)cc1 (stereo not given) at or over -0.7 in terms of z-score?
N

Please indicate if the recorded z-score for CCOC(=O)C1CCCN(c2nc3ccccc3nc2C(C#N)C(=O)OC(C)C)C1 (stereo not given) meets or exceeds -0.7.
N

Hi, just wondering whether "N#CCc1nc2c3c4c(sc3ncn2n1)CCCC4" shows z-score of -0.7 or higher.
Y

Kindly determine if z-score recorded for "CCOc1ccc(-c2nnc3sc(COc4ccccc4)nn23)cc1" is above or exactly -0.7.
Y

Textbook exercise: given the entry "CNC(=O)c1cc2ccccc2o1" , state whether its z-score is greater than or equal to -0.7.
N

Can "Cn1c(=O)cc(NCc2ccccc2)[nH]c1=O" be said to have z-score at or above -0.7?
Y

Confirm if z-score reported for the compound "CCCCCCn1c(SCCN2CCOCC2)nc2c1c(=O)[nH]c(=O)n2C" is -0.7 or above.
Y

I'd appreciate it if you could say whether "CN1CCC(=C2c3ccccc3C=Cc3ccccc32)CC1" has z-score at least equal to -0.7.
Y

Decide: z-score of "CCCCn1cnc2c(c1=O)c1nc3ccccc3nc1n2Cc1ccc2c(c1)OCO2" >= -0.7?
Y

Could you please find out whether "CCOC(=O)CNC(=O)Nc1ccccc1C(=O)OC" has z-score that meets -0.7 or exceeds it?
Y

Has "CCn1c(-c2ccco2)n[nH]c1=S" a recorded z-score greater than or equal to -0.7?
Y

Threshold query (z-score >= -0.7) on "Cc1cc(=O)oc2cc(OCCSCCN3CCOCC3)ccc12"
Y

Is z-score at least -0.7? Consider "CC(=O)Nc1ccc(Oc2ccc3nc(C)[nH]c3c2)cc1"
Y

Is z-score for "COC(=O)c1ccc(CSc2ncnc3c2sc2nc(N4CCOCC4)c4c(c23)CCCC4)o1" at or above -0.7?
Y

Kindly determine if z-score recorded for OC(CNCCCN1CCCCC1)COc1ccccc1 (stereo not given) is above or exactly -0.7.
Y

Check this compound for z-score at or above -0.7: CCN(CC)CCCN1C(=O)C(=O)/C(=C(/O)c2ccccc2)C1c1ccccn1 (stereo not given)
Y

Quick check: does "c1coc(CNc2ncnc3ccccc23)c1" have z-score greater than or equal to -0.7?
Y

Item Cc1cc(N2C(=O)C(=O)/C(=C(/O)c3ccc(F)cc3)C2c2ccc(F)cc2)no1 (stereo not given) with z-score of -0.7 or above?
N

Say whether CC(C)OC(=O)C(C#N)c1nc2ccccc2nc1N1CCN(Cc2ccc3c(c2)OCO3)CC1 (stereo not given) shows z-score of -0.7 or more.
Y

Could you verify whether the entry "c1ccc(SCc2nc3ccccc3[nH]2)nc1" shows z-score of no less than -0.7?
Y

Does COCCc1ccc(OCC(O)CNC(C)C)cc1 (stereo not given) have a reported z-score of at least -0.7?
N

Threshold query (z-score >= -0.7) on O=C1CC(c2ccco2)CC(O)=C1C=Nc1cc(Cl)ccc1O (stereo not given)
N
